Consider the following binders; for each one, report its Kd.
Biological target: T1, Loqs-PD (Drosophila melanogaster, UniProt Q9VJY9-4 1-359)
T1 sequence: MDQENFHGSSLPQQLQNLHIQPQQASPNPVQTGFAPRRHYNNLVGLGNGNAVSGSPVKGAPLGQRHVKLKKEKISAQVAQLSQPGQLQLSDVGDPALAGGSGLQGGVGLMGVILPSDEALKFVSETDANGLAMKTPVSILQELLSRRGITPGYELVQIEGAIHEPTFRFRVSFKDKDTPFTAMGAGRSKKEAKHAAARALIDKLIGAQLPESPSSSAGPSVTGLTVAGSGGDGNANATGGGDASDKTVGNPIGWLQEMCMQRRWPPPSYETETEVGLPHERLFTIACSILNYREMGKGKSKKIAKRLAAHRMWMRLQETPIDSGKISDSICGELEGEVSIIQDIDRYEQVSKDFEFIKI
Assay: fluorescence anisotropy
Answer by giving the amount and then stating its unit.

Completed entries (count: 3):
bantam miRNA/miRNA*, FITC (dsRNA, 5'-phosphate) RNA 1: UGAGAUCAUUUUGAAAGCUGAUU RNA 2: UCGGUUUUCGAUUUGGUUUGACU = 118 nM
ban-siRNA, FITC (dsRNA, 5'-phosphate) RNA 1: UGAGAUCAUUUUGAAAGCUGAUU RNA 2: UCAGCUUUCAAAAUGAUCUCACU = 50 nM
35 nt dsRNA, FITC (dsRNA, 5'-phosphate) RNA 1: GAUUCAUACAAGUGAGAUCAUUUUGAAAGCUGAUU RNA 2: UCAGCUUUCAAAAUGAUCUCACUUGUAUGAAUCAA = 62 nM

Field: next binder
Name the recorded Kd for 14 nt RNA, FITC (dsRNA, 5'-phosphate) RNA 1: UGAGAUCAUUUUGA RNA 2: UCAAAAUGAUCUCAUU .
118 nM
